system: Lu1; experiment: Cytotoxicity against human Lu1 cells; assay type: functional; settings: read-out: ED50 (the source's name)
RESULT_TYPE: EC50 (µg/mL)
Response body: numeric value in µg/mL, unit text excluded.

Take a look at these entries with their results.
SMILES_CODE	STUDY_SYSTEM	U	EC50
C/C(=C\[C@H]1C[C@@H]([C@@H]2CC[C@]34C[C@]23[C@H](O)C[C@@H]2[C@@]3(C)CC=C5C[C@@H](c6ccccc6)OC[C@]5(C)[C@@H]3C[C@@H](O)[C@]24C)C(=O)O1)CO	Lu1	µg/mL	7.6
C=C1C(=O)C(O)=C[C@@H]2[C@@]3(C)CC[C@](C)(C(=O)OC)C[C@@H]3CC[C@]12C	Lu1	µg/mL	1.6

Consider the record given below.
Query block: Any idea what its EC50 is? The compound is "COc1ccc([C@@H]2CC3=CC[C@]4(C)[C@H]5C[C@@H](O)[C@]67C[C@]6(CC[C@H]7[C@@H]6C[C@H](/C=C(\C)CO)OC6=O)[C@]5(C)[C@H](O)C[C@H]4[C@@]3(C)CO2)cc1"
Result block: 14.5
